Test system: Escherichia coli TOP10;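 further: peptides expressed intracellularly from a pBAD plasmid library in pooled LB shake-flask culture, induced with 0.3% L-arabinose, DNA abundance read by NGS, three biological replicates, DESeq2 with apeglm shrinkage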
Assay remarks: shrunken log2 fold change of peptide-encoding DNA abundance (4.5 h post-induction vs induction); higher = less antimicrobial activity (less host growth inhibition)
Test settings: time post-induction: 4.5 h; library: site-saturation at positions 5, 18, 19, 20
Below is a list of entries, each paired with its recorded shrunken log2 fold change value.
Write no unit; give the number alone.

Solved cases (3 shown):
>  <Polymer sequence>
RRIRSRPPRLPRPRPRPHWLPRP

>  <shrunken log2 fold change>
-0.614

$$$$
>  <Polymer sequence>
RRIRYRPPRLPRPRPRPKQLPRP

>  <shrunken log2 fold change>
0.0588

$$$$
>  <Polymer sequence>
RRIRKRPPRLPRPRPRPCNMPRP

>  <shrunken log2 fold change>
-0.0983

$$$$

*Q* Complete the entry with shrunken log2 fold change for RRIRPRPPRLPRPRPRPHNMPRP
*A* -0.745

*Q* Answer with reported shrunken log2 fold change of RRIRFRPPRLPRPRPRPIDPPRP
*A* -0.526

*Q* // fetch shrunken log2 fold change given entry RRIRSRPPRLPRPRPRPHNMPRP
*A* -0.798

*Q* For the sequence RRIRYRPPRLPRPRPRPCRVPRP , give its reported shrunken log2 fold change.
*A* 0.00293

Values compiled from the supplement of paper PMC9112550.
